B1: tRNA (parent)
chain: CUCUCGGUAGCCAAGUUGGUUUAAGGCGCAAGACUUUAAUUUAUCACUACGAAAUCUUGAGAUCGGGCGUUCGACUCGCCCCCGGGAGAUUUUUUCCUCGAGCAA

Variants of: B1
Test: nonsense suppression (GFP-seq) (ratio to wild type); higher = more function; SUP4oc tRNA, yeast GFP reporter sort-seq
Fewer inactive variants are shown than the library holds.
recorded.endpoint: nonsense suppression
Answer field: number only, no words.

# count of solved cases: 5
>>> value("U2A A13U")
0.0284
>>> value("A24U A31G")
0.229
>>> value("U16G U21C")
0.905
>>> value("A13C A60G")
0.392
>>> value("C29U C77G")
0.0454

Query: // returns reported nonsense suppression for input U20A U63G
Response: 0.106

Query: And C1G U55C ?
Response: 0.0398

Query: And A30G A89U ?
Response: 0.0271

Query: And G61A C72U ?
Response: 0.0666

Query: And G28A A33G ?
Response: 0.161
